Numbers sourced from patent US11111238B2.

Test system: mitochondrial transcription (7S RNA) in HeLa cells
Assay Notes: Quantitative real time-PCR assay of inhibition of mitochondrial transcription (cellular qPCR assay IMT)
Assay type: cell-based
Measurement Setup: Homo sapiens, 4 h compound incubation, qRT-PCR according to Example 5, activity class
pIC50: −log10 of the molar value.
Recorded Metric: pIC50

Cc1ccsc1-c1cc(=O)oc2cc(O[C@H](C)C(=O)NC(C)C)ccc12 :: 7.30 to 8.00
C[C@@H](Oc1ccc2c(-c3ccccc3Cl)cc(=O)oc2c1)C(=O)N1CCC[C@H](C(=O)O)C1 :: > 8.00
C[C@@H](Oc1ccc2c(-c3ccc(F)cc3Cl)cc(=O)oc2c1)C(=O)N1CCC[C@@H](CC(=O)O)C1 :: > 8.00
CC(Oc1ccc2c(-c3ccccc3Cl)cc(=O)oc2c1)C(=O)N1CCC(CC(=O)O)CC1 (stereo not shown) :: 7.30 to 8.00
C[C@@H](Oc1ccc2c(-c3ccc(F)cc3Cl)cc(=O)oc2c1)C(=O)Nc1ccc(C(=O)O)cn1 :: > 8.00
CC(Oc1ccc2c(-c3ccccc3Cl)cc(=O)oc2c1)C(=O)NC1CC1 (stereo not shown) :: > 8.00
C[C@@H](Oc1ccc2c(-c3ccc(F)cc3Cl)cc(=O)oc2c1)C(=O)N1CCC[C@H](CC(=O)OCCN2CCOCC2)C1 :: > 8.00
